Measured β-Galactosidase Activity, Cultured Without ATC values are reported for all entries that follow.
System: tet operator sequence
experiment: β-galactosidase activity of a tetracycline-regulated promoter in transformed E. coli with revTetR, in the presence and absence of anhydrotetracycline (atc)
Assay type: cell-based, Escherichia coli
experimental_parameters: RevTetR isolate cultured in the absence of anhydrotetracycline (ATC)
Give the value as a plain number.

TetRrev6-32: revTetR(BD) L79V A97T K98R V99G (protein, Modified tetracycline repressor, revTetR(BD) L79V A97T K98R V99G) MSRLDKSKVINSALELLNEVGIEGLTTRKLAQKLGVEQPTLYWHVKNKRALLDALAVEILARHHDYSLPAAGESWQSFVRNNAMSFRRALLRYRDGTRGHLGTRPDEKQYDTVETQLRFMTENGFSLRDGLYAISAVSHFTLGAVLEQQEHTAALTDRPAAPDENLPPLLREALQIMDSDDGEQAFLHGLESLIRGFEVQLTALLQIV = 79.3731
TetRrev96/99-19: revTetR(BD) G96R V99S (protein, Modified tetracycline repressor, revTetR(BD) G96R V99S) MSRLDKSKVINSALELLNEVGIEGLTTRKLAQKLGVEQPTLYWHVKNKRALLDALAVEILARHHDYSLPAAGESWQSFLRNNAMSFRRALLRYRDRAKSHLGTRPDEKQYDTVETQLRFMTENGFSLRDGLYAISAVSHFTLGAVLEQQEHTAALTDRPAAPDENLPPLLREALQIMDSDDGEQAFLHGLESLIRGFEVQLTALLQIV = 95.188
TetRrev29/24: revTetR(BD) E15V L17F N18Y I22M E23K (protein, Modified tetracycline repressor, revTetR(BD) E15V L17F N18Y I22M E23K) MSRLDKSKVINSALVLFYEVGMKGLTTRKLAQKLGVEQPTLYWHVKNKRALLDALAVEILARHHDYSLPAAGESWQSFLRNNAMSFRRALLRYRDGAKVHLGTRPDEKQYDTVETQLRFMTENGFSLRDGLYAISAVSHFTLGAVLEQQEHTAALTDRPAAPDENLPPLLREALQIMDSDDGEQAFLHGLESLIRGFEVQLTALLQIV = 85.5708
TetRrevAtc4-70: revTetR(BD) D53A A61P (protein, Modified tetracycline repressor, revTetR(BD) D53A A61P) MSRLDKSKVINSALELLNEVGIEGLTTRKLAQKLGVEQPTLYWHVKNKRALLAALAVEILPRHHDYSLPAAGESWQSFLRNNAMSFRRALLRYRDGAKVHLGTRPDEKQYDTVETQLRFMTENGFSLRDGLYAISAVSHFTLGAVLEQQEHTAALTDRPAAPDENLPPLLREALQIMDSDDGEQAFLHGLESLIRGFEVQLTALLQIV = 16.119

Now let's try a different one.
Form field β-Galactosidase Activity, Cultured Without ATC, entry TetRrevAtc4-16: revTetR(BD) D53N A54G V57F I59S L60F (protein, Modified tetracycline repressor, revTetR(BD) D53N A54G V57F I59S L60F) MSRLDKSKVINSALELLNEVGIEGLTTRKLAQKLGVEQPTLYWHVKNKRALLNGLAFESFARHHDYSLPAAGESWQSFLRNNAMSFRRALLRYRDGAKVHLGTRPDEKQYDTVETQLRFMTENGFSLRDGLYAISAVSHFTLGAVLEQQEHTAALTDRPAAPDENLPPLLREALQIMDSDDGEQAFLHGLESLIRGFEVQLTALLQIV : 104.174
